Measured values drawn from patent US20090092624A1 for this set.

# Tested on: Escherichea coli (ATCC# 53499)
# testDetails: microbe, parasite or virus in culture
# runParameters: Escherichia coli, ATCC53499, read-out: IC50 value, adhesion inhibition
testReadout: IC50 (µM)
Give bare numbers, in µM.

Query: IC50; subject: O=C1c2c(O)cc(O)cc2OC(c2cc(O)c(O)c(O)c2)C1O (stereo not shown)
60
